# ASSAY_OVERVIEW: Phase 1/2 study: plasma pharmacokinetics of Compound (I) in patients (LC-MS/MS, non-compartmental analysis)
# Format: in vivo, human
# EXPERIMENTAL_CONDITIONS: human, plasma, oral, 400 mg BID, 400 mg BID with 200 mg run-in, Cycle 1 Day 22, mean ± SD, n = 24; read-out: AUC0-12

{"LINE_NOTATION": "CC1(N)CCN(c2cccnc2NC(=O)c2nc(-c3ncccc3C(F)(F)F)cnc2N)CC1", "AUC(0-t) (ng·h/mL)": 21500}

---

# ASSAY_OVERVIEW: Phase 1/2 study: plasma pharmacokinetics of Compound (I) in patients (LC-MS/MS, non-compartmental analysis)
# Assay type: in vivo, human
# EXPERIMENTAL_CONDITIONS: human, plasma, oral, 300 mg, 300 mg BID, Cycle 1 Day 15, mean ± SD, n = 12; read-out: Cmax
# Procedure: The following example presents a phase 1/2 study of Compound (I) in patients with solid tumors harboring GNAQ/11 mutations or PRKC fusions. Patients with MUM were sequentially enrolled into Cohort 1 or Cohort 2. Enrollment into Cohort 2 was not initiated until enrollment into Cohort 1 was completed and the dose considered safe. • a. Cohort 1. […] The Pharmacokinetic parameters were calculated using Phoenix WinNonlin software (non-compartmental analysis).
VALUE_KIND: Cmax (ng/mL)

{"LINE_NOTATION": "CC1(N)CCN(c2cccnc2NC(=O)c2nc(-c3ncccc3C(F)(F)F)cnc2N)CC1", "OBSERVED_RESULT": 2860}
